Ref: ChEMBL document CHEMBL3588785

# study.system: Dual specificity mitogen-activated protein kinase kinase 1 (Homo sapiens, UniProt Q02750)
# Sequence (Q02750 whole entry): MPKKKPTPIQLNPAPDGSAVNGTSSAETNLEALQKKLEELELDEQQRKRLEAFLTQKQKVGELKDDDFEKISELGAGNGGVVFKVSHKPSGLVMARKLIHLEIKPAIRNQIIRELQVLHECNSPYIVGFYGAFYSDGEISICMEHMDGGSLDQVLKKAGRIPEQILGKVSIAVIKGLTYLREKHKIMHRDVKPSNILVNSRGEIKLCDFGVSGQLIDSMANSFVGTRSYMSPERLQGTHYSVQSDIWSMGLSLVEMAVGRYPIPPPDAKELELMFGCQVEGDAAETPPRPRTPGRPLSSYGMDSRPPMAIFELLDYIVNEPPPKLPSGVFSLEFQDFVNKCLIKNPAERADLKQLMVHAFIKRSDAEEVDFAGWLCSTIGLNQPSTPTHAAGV
# assay.name: Inhibition of MEK1 (unknown origin) autophosphorylation incubated with enzyme for 20 mins prior to ATP addition by ADP Glo kinase assay in presence of ATP at Km concentration
Answer each item with its documented IC50.

Record excerpt, results attached:
structure.as.smiles	study.system	result
COc1cc(O)c2c(c1)/C=C/C[C@H](O)[C@@H](O)C(=O)/C=C/C[C@H](C)OC2=O	Dual specificity mitogen-activated protein kinase kinase 1 (Homo sapiens, UniProt Q02750)	3.4 µM
C=CC(=O)Nc1ccccc1Nc1cc(NC2CCOCC2)ncc1Cl	Dual specificity mitogen-activated protein kinase kinase 1 (Homo sapiens, UniProt Q02750)	> 10 µM

Let's switch to this compound now.
IC50 of C=CS(=O)(=O)Nc1ccc2[nH]nc(-c3ccncc3)c2c1 on Dual specificity mitogen-activated protein kinase kinase 1 (Homo sapiens, UniProt Q02750)?
> 10 µM

---

# System: A-375
# assay.name: Antiproliferative activity against human A375 cells harboring B-RAF V600E mutant after 72 hrs by Cellomics ArrayScanTM VTI imaging analysis
# Type: functional, cell-based
# particulars: A-375, 72 h
Answer each item with its documented log10(IC50).
The figures below represent log10 of IC50, where IC50 is stated in nM.

Record excerpt, results attached:
structure.as.smiles	log10(IC50)
C=CC(=O)Nc1ccccc1Nc1nc(NC2CCOCC2)ncc1Cl	1.76
CCC(=O)Nc1ccccc1Nc1nc(NC2CCOCC2)ncc1Cl	3.82

Look up log10(IC50) for the entries below, preserving their order.
1. C=CC(=O)Nc1ccccc1Nc1nc(NC2CCOCC2)ncc1C(F)(F)F
2. C=CC(=O)Nc1ccccc1Nc1nc(N[C@H]2CC[C@H](N(C)C)CC2)ncc1Cl
3. O=C(Nc1ccc2[nH]nc(-c3ccncc3)c2c1)[C@@H]1CCN(CC(=O)N2CCN(c3ccc(-c4ncccn4)cc3)CC2)C1
4. CNC(=O)c1ccc(F)cc1Nc1cc(Nc2cc(C)nn2C)ncc1C(F)(F)F
5. CNC(=O)c1ccc(F)cc1Nc1cc(NC2CCOCC2)ncc1C(F)(F)F

1.72
2.08
1.85
3.15
3.53

---

# assay.name: 1-Octanol-aqueous phosphate buffer partition coefficient, logD of the compound at pH 7.4
# Assay type: physicochemical
experimental.endpoint: logD
One number for each entry.

Record excerpt, results attached:
structure.as.smiles	logD
C=CC(=O)Nc1ccccc1Nc1nc(NC2CCOCC2)ncc1Cl	2.7
C=CC(=O)Nc1ccccc1Nc1nc(Nc2ccnn2C)ncc1Cl	2.4
COc1cc(O)c2c(c1)/C=C/C[C@H](O)[C@@H](O)C(=O)/C=C/C[C@H](C)OC2=O	1.6

Let's switch to this compound now.
Requested read-out: logD. Entry: C=CC(=O)Nc1cnccc1Nc1nc(NC2CCOCC2)ncc1Cl
2.3

---

# study.system: Mitogen-activated protein kinase 1 (Homo sapiens, UniProt P28482)
# Sequence (P28482 whole entry): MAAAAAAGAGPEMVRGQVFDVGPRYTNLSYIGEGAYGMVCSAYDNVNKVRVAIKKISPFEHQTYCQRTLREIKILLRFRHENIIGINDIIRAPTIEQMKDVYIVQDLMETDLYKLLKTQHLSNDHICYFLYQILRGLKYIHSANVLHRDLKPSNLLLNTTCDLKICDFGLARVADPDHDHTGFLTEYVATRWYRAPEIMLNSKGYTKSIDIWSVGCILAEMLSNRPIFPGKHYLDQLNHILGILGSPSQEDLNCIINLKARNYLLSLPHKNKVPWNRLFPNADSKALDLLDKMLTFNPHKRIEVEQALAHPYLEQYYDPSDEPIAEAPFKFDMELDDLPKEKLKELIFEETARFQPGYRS
# assay.name: Inhibition of MEK U911-activated ERK2 (unknown origin) using Erktide as substrate preincubated with enzyme for 20 mins prior to substrate addition by RapidFire Mass Spectrometry in presence of ATP at Km concentration
Answer each item with its documented IC50.

structure.as.smiles	IC50
C=CS(=O)(=O)Nc1ccc2[nH]nc(-c3ccncc3)c2c1	7.5 nM

Look up IC50 for the entries below, preserving their order.
1. CNC(=O)c1ccccc1Nc1cc(NC2CCOCC2)ncc1Cl
2. C=CC(=O)Nc1ccccc1Nc1nc(N[C@H]2CC[C@H](N(C)C)CC2)ncc1Cl

["260 nM", "85 nM"]

Look up IC50 for the entries below, preserving their order.
1. C=CC(=O)Nc1ccccc1Nc1nc(Nc2ccnn2C)ncc1C
2. C=CS(=O)(=O)N1CCc2cnc(NC3CCOCC3)nc2C1
3. CNC(=O)c1ccc(F)cc1Nc1cc(Nc2cc(C)nn2C)ncc1C(F)(F)F
4. C=CS(=O)(=O)N1CCc2[nH]nc(-c3ccnc(C)c3)c2C1
5. C=CC(=O)Nc1ccccc1Nc1nc(NC2CCOCC2)ncc1C(F)(F)F
6. COc1cc(O)c2c(c1)/C=C/C[C@H](O)[C@@H](O)C(=O)/C=C/C[C@H](C)OC2=O
7. CCS(=O)(=O)N1CCc2cnc(NC3CCOCC3)nc2C1

39 nM
370 nM
44 nM
74 nM
6.9 nM
5100 nM
9000 nM

Look up IC50 for the entries below, preserving their order.
1. C=CC(=O)Nc1cnccc1Nc1nc(NC2CCOCC2)ncc1Cl
2. CCS(=O)(=O)Nc1ccc2[nH]nc(-c3ccncc3)c2c1
3. C=CC(=O)Nc1ccccc1Nc1nc(Nc2ccnn2C)ncc1Cl
4. C=CC(=O)Nc1ccccc1Nc1nc(NC2CCOCC2)ncc1C
5. C=CC(=O)Nc1ccccc1Nc1cc(NC2CCOCC2)ncc1Cl

3.1 nM
280 nM
9.9 nM
77 nM
42 nM
